molecular target: human DGAT2 (Homo sapiens, UniProt Q96PD7); construct: FLAG (DYKDDDDK); membrane fraction used; test: DGAT2 enzyme activity inhibition, Phospholipid FlashPlate SPA; settings: recombinant human DGAT2 membrane protein from Sf-21 cells; inhibition of [14C]-TG production; 37° C.
Sequence (Q96PD7 whole entry): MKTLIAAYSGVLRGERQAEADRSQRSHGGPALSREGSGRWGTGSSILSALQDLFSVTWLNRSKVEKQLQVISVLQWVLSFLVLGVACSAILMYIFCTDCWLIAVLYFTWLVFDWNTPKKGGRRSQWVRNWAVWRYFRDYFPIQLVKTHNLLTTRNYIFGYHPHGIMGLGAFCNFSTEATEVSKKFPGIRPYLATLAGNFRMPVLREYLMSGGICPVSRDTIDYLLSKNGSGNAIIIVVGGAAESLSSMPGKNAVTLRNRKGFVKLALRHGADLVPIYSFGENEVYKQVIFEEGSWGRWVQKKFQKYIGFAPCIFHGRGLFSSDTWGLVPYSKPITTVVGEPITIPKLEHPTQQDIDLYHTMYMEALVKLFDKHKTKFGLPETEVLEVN
Let's look at some molecules and their measured pIC50.
Bear in mind: pIC50 is minus log10 of a mol/L concentration; give just that figure.

Would you please look over these solved cases?
MOLECULE	MEASURED_TARGET	pIC50
CCOc1ccccc1O[C@@H]1CCCN(c2cncc(Nc3cccc(Oc4cccc(C(C)(C)C(=O)O)c4)n3)n2)C1 [Example 91]	human DGAT2 (Homo sapiens, UniProt Q96PD7)	6.47
CCOc1ccccc1O[C@@H]1CCCN(c2cncc(Nc3ccc(-c4cccc(CC(C)(C)C(=O)O)c4)nc3)n2)C1 [Example 48]	human DGAT2 (Homo sapiens, UniProt Q96PD7)	5.74
CCOc1ccccc1O[C@@H]1CCCN(c2cncc(Nc3nccc(-c4ccc(OC(C)(C)C(=O)O)cc4)n3)n2)C1 [Example 160]	human DGAT2 (Homo sapiens, UniProt Q96PD7)	6.89
CCOc1ccccc1O[C@@H]1CCCN(c2cncc(Nc3nc(C)c(C)s3)n2)C1 [Example 2]	human DGAT2 (Homo sapiens, UniProt Q96PD7)	5.19
CCOc1ccccc1O[C@@H]1CCCN(c2cncc(Nc3cccc(Oc4ccc(CC(=O)O)cc4)n3)n2)C1 [Example 97]	human DGAT2 (Homo sapiens, UniProt Q96PD7)	6.05

In: Quick one: pIC50 for CCOc1ccccc1O[C@@H]1CCCN(c2nc(Nc3cccc(-c4cccc(CC(C)(C)C(=O)O)c4)n3)ncc2C(F)(F)F)C1 [Example 71] ?
Out: 6.17

In: Quick one: pIC50 for CCOc1ccccc1O[C@@H]1CCCN(c2cncc(Nc3ccnc(-c4cccc(CC(C)(C)C(=O)O)c4)n3)n2)C1 [Example 170] ?
Out: 6.60

In: Quick one: pIC50 for CCOc1ccccc1O[C@@H]1CCCN(c2cncc(Nc3cc(-c4cccc(CC(C)(C)C(=O)O)c4)ccn3)n2)C1 [Example 44] ?
Out: 5.40
